Test system: M18 aspartyl aminopeptidase (Plasmodium falciparum 3D7)
Experiment: inhibition of P. falciparum M18 aminopeptidase – biochemical, QFRET, recombinant enzyme, primary screen (AID 1822);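 also: 0% = plate median of test compound wells and 100% = 2 mM ZnCl2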
Conditions: recombinant PfM18AAP, H-Glu-NHMec fluorogenic cleavage; at 7.35 µM
In all, about 290,000 compounds went through this assay and about 3,500 (1.2%) were called active.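 The calls were made as follows: active = inhibition above the campaign mean inhibition over all tested compounds plus 3 SD (cut at about 28% in these data); inactive = the rest.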 Many of the other results were omitted from the sample, so actives are more common in it than they were.
Outcome (select one): True (active), False (inactive)

Asked: What outcome does the record of this test show for CC(=O)Nc1ccc(N2CCOCC2)c(C(=O)Nc2cccc(C)c2)c1 ?
Given back: False

Asked: What outcome does the record of this test show for Cc1occc1C(=O)N/N=C/c1ccc(-c2cccc([N+](=O)[O-])c2)o1 ?
Given back: False

Asked: What outcome does the record of this test show for CCOCCCNC(=O)c1ccc(CS(=O)(=O)c2cccc(C(F)(F)F)c2)o1 ?
Given back: True

Asked: What outcome does the record of this test show for COC(=O)c1c(NC(=O)C2CC(C)=C(C)CC2C(=O)O)sc2c1CCCCC2 (stereo unspecified) ?
Given back: False

* * *

Test system: M18 aspartyl aminopeptidase (Plasmodium falciparum 3D7)
Assay: inhibition of P. falciparum M18 aminopeptidase – biochemical, QFRET, recombinant enzyme, primary screen (AID 1822);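 also: 0% = plate median of test compound wells and 100% = 2 mM ZnCl2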
Details: recombinant PfM18AAP, H-Glu-NHMec fluorogenic cleavage; at 7.35 µM; stronger effect = higher value
Among all 290,000 compounds or so, about 3,500 (1.2%) were called active. What follows is part of a selection rich in actives, with near analogues and random picks from the rest.
MEASURED_PROPERTY: inhibition (%)
# unit: % | format: bare number

Field: example entries. Status: answers known.
INSERT INTO results (compound, subject_of_test, reported_value) VALUES
  ('COc1ccc(C)cc1Nc1nc(C)nc2c1oc1ccccc12', 'M18 aspartyl aminopeptidase (Plasmodium falciparum 3D7)', 2.6),
  ('Cc1ccc2c(c1)c1ncn(Cc3ccc(F)cc3)c(=O)c1n2C', 'M18 aspartyl aminopeptidase (Plasmodium falciparum 3D7)', -2.55),
  ('CC(C)CNC(=O)C(=O)NCC(c1ccc2c(c1)OCO2)N1CCOCC1 (centres undefined)', 'M18 aspartyl aminopeptidase (Plasmodium falciparum 3D7)', -5.45),
  ('CCCc1nc2ccccc2c(=O)n1/N=C/c1ccc(O)c(O)c1', 'M18 aspartyl aminopeptidase (Plasmodium falciparum 3D7)', 53.2),
  ('COc1ccc(/C(O)=C2\C(=O)C(=O)N(Cc3ccco3)C2c2ccc(OC)cc2OC)cc1 (centres undefined)', 'M18 aspartyl aminopeptidase (Plasmodium falciparum 3D7)', 8.22),
  ('COc1ccc(-c2nonc2NC(=O)c2oc3ccc(F)cc3c2C)cc1OC', 'M18 aspartyl aminopeptidase (Plasmodium falciparum 3D7)', 2.64);

Asked: Fill in inhibition for record COc1cc(/C=C2/C(=O)NN(c3ccc(F)cc3)C2=O)cc([N+](=O)[O-])c1O
Given back: 9.62

* * *

Tested on: M18 aspartyl aminopeptidase (Plasmodium falciparum 3D7)
Assay: inhibition of P. falciparum M18 aminopeptidase – biochemical, QFRET, recombinant enzyme, primary screen (AID 1822);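 also: 0% = plate median of test compound wells and 100% = 2 mM ZnCl2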
Details: recombinant PfM18AAP, H-Glu-NHMec fluorogenic cleavage; at 7.35 µM
Screen size: about 290,000 compounds; about 3,500 (1.2%) were called active.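 How the source made its calls: active means inhibition above the campaign mean inhibition over all tested compounds plus 3 SD (cut at about 28% in these data); inactive means the rest.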 For the sample, actives were picked, then their nearest neighbours and some compounds at random.
Outcome (select one): t (active), f (inactive)

Asked: What outcome does the record of this test show for O=c1c(/C=N/O)coc2ccc(Cl)cc12 ?
Given back: f

Asked: What outcome does the record of this test show for O=C(CN1C(=O)NC2(CCCCC2)C1=O)NCCc1c[nH]c2ccccc12 ?
Given back: f

Asked: What outcome does the record of this test show for Cc1ccc(Cc2cnc(NC(=O)/C(C#N)=C/c3ccc(-c4cccc([N+](=O)[O-])c4)o3)s2)cc1 ?
Given back: f

Asked: What outcome does the record of this test show for CCc1cccc(C)c1NC(=O)CSc1nnc(-c2ccco2)n1N ?
Given back: f

Asked: What outcome does the record of this test show for CCOc1ccc(C(=O)Nc2cccc(SC)c2)cc1 ?
Given back: f

Asked: What outcome does the record of this test show for CC(=O)NS(=O)(=O)c1ccc2c(c1)Cc1cc(S(=O)(=O)NC(C)=O)ccc1-2 ?
Given back: f

Asked: What outcome does the record of this test show for O=C(CN(Cc1ccccc1)C(=O)CCC(=O)Nc1ccccn1)NCCc1ccccc1 ?
Given back: f

Asked: What outcome does the record of this test show for CCOC(=O)N1CCN(S(=O)(=O)c2ccc(Br)cc2)CC1 ?
Given back: f

Asked: What outcome does the record of this test show for Cc1ccc(-n2c(N)c(C(=O)N3CCOCC3)sc2=S)c(C)c1 ?
Given back: f

Asked: What outcome does the record of this test show for CCOC(=O)c1cccc(NS(=O)(=O)c2c(C(=O)N3CCCCCC3)c(C)n(C)c2C)c1 ?
Given back: f

Asked: What outcome does the record of this test show for COc1ccccc1-c1nnc(SCC(=O)Nc2ccccc2)o1 ?
Given back: f

Asked: What outcome does the record of this test show for Cn1cccc1C(=O)N1CCc2ccccc2C1 ?
Given back: f

* * *

Listed here are compounds together with their documented inhibition.
Test system: M18 aspartyl aminopeptidase (Plasmodium falciparum 3D7)
Assay: inhibition of P. falciparum M18 aminopeptidase – biochemical, QFRET, recombinant enzyme, primary screen (AID 1822);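 also: 0% = plate median of test compound wells and 100% = 2 mM ZnCl2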
Details: recombinant PfM18AAP, H-Glu-NHMec fluorogenic cleavage; at 7.35 µM; stronger effect = higher value
The whole screen tested about 290,000 compounds, of which about 3,500 (1.2%) were called active. This is one part of a sample in which actives are shown more often than they occur.
# unit: % | format: bare number

INSERT INTO results (compound, measured_property, readout_unit, reported_value) VALUES
  ('Cc1ccc(NNC(=O)c2cccs2)cc1Cl', 'inhibition', '%', 28.9),
  ('O=C(Nc1ccnn1C1CCN(Cc2cccc(OCCO)c2)CC1)C1CCCC1', 'inhibition', '%', -3.2),
  ('NNc1nc2c(Cl)cccc2s1', 'inhibition', '%', 28.1);

# evaluate next
Asked: Tell me inhibition of COc1cccc(N(C(=O)CNC(=O)c2ccco2)C(C(=O)NC2CCCCC2)c2cccnc2)c1 (stereo unspecified) when tested on M18 aspartyl aminopeptidase (Plasmodium falciparum 3D7).
Given back: 9.7

* * *

Tested on: M18 aspartyl aminopeptidase (Plasmodium falciparum 3D7)
Assay: inhibition of P. falciparum M18 aminopeptidase – biochemical, QFRET, recombinant enzyme, primary screen (AID 1822);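 also: 0% = plate median of test compound wells and 100% = 2 mM ZnCl2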
Settings: recombinant PfM18AAP, H-Glu-NHMec fluorogenic cleavage; at 7.35 µM; stronger effect = higher value
Hit rate of the full screen: of about 290,000 compounds, about 3,500 (1.2%) were called active. This is one part of a sample in which actives are shown more often than they occur.
MEASURED_PROPERTY: inhibition (%)
# unit: % | format: bare number

INSERT INTO measurements (compound, reported_value) VALUES
  ('Cc1cccc([C@@H]2[C@@H]3C(=O)N(C)C(=O)[C@@H]3[C@@H]3C(=O)Nc4ccccc4C(=O)N23)c1', -3.83),
  ('CCOC(=O)N1CCN(Cc2nc3cc(NC(=O)CC)ccc3n2CC)CC1', -7.14),
  ('Cc1onc(C(=O)Nc2ccc3c(c2)OCO3)c1[N+](=O)[O-]', -1.41),
  ('C/C(Cc1ccccc1)=N\NC(=O)CNC(=O)c1ccccc1Cl', 6.33);

Asked: Tell me inhibition of CN(C)c1ccc(N/C=C/C(=O)C(F)(F)F)cc1 when tested on M18 aspartyl aminopeptidase (Plasmodium falciparum 3D7).
Given back: 29.1

Asked: Tell me inhibition of Cn1ncc(Br)c1C(=O)NC1CCCC1 when tested on M18 aspartyl aminopeptidase (Plasmodium falciparum 3D7).
Given back: -2.67

Asked: Tell me inhibition of O=C(/C=C/Nc1ccccc1OC(F)(F)F)C(F)(F)F when tested on M18 aspartyl aminopeptidase (Plasmodium falciparum 3D7).
Given back: -3.52

* * *

Listed here are compounds together with their documented inhibition.
Test system: M18 aspartyl aminopeptidase (Plasmodium falciparum 3D7)
Experiment: inhibition of P. falciparum M18 aminopeptidase – biochemical, QFRET, recombinant enzyme, primary screen (AID 1822);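 also: 0% = plate median of test compound wells and 100% = 2 mM ZnCl2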
Conditions: recombinant PfM18AAP, H-Glu-NHMec fluorogenic cleavage; at 7.35 µM; stronger effect = higher value
The campaign covered roughly 290,000 compounds. About 3,500 (1.2%) were called active. This excerpt belongs to a sample that is enriched for actives.

Field: example entries. Status: answers known.
INSERT INTO results (compound, subject_of_test, measured_property, reported_value) VALUES
  ('CC1CCC(NS(=O)(=O)c2ccc3c(c2)n(C)c(=O)c(=O)n3C)CC1 (stereo unspecified)', 'M18 aspartyl aminopeptidase (Plasmodium falciparum 3D7)', 'inhibition', '-14% (inactive)'),
  ('O=C1CCN(CCc2ccccc2)CCN1CCOc1ccccc1', 'M18 aspartyl aminopeptidase (Plasmodium falciparum 3D7)', 'inhibition', '1.32% (inactive)'),
  ('Cc1csc(=Nc2ccccc2)n1CCO', 'M18 aspartyl aminopeptidase (Plasmodium falciparum 3D7)', 'inhibition', '2.31% (inactive)'),
  ('CN(C(=O)CC1C(=O)NCCN1Cc1ccc2ccccc2c1)C1CCOCC1 (stereo unspecified)', 'M18 aspartyl aminopeptidase (Plasmodium falciparum 3D7)', 'inhibition', '9.14% (inactive)'),
  ('OCCn1c(-c2ccccc2)csc1=Nc1ccccc1', 'M18 aspartyl aminopeptidase (Plasmodium falciparum 3D7)', 'inhibition', '44.3% (active)'),
  ('CC(=O)N1CCOc2ccc(S(=O)(=O)N3CCN(c4cccc(C(F)(F)F)c4)CC3)cc21', 'M18 aspartyl aminopeptidase (Plasmodium falciparum 3D7)', 'inhibition', '-2.98% (inactive)');

Asked: Fill in inhibition for record CC(=O)N1c2ccc(S(=O)(=O)N3CCC(C(=O)N4CCN(c5ccccc5)CC4)CC3)cc2CC1C (stereo unspecified)
Given back: 5.96% (inactive)

Asked: Fill in inhibition for record O=S(=O)(c1ccc(Cl)cc1)c1nc(-c2ccccc2F)oc1NCCN1CCOCC1
Given back: 1.96% (inactive)

Asked: Fill in inhibition for record O=CN1CCN(C(=O)c2ccc(Br)o2)CC1
Given back: -0.01% (inactive)

Asked: Fill in inhibition for record Cc1csc(=NC(=O)c2ccccc2)n1CCO
Given back: 4.05% (inactive)

Asked: Fill in inhibition for record Cn1sc(=O)c2cc(S(=O)(=O)NC3CC3)ccc21
Given back: 43% (active)
